Where do the numbers come from? From patent US9265253B2.

# pest or weed control at 121.5 g/ha listing for each entry below
- System: Mycosphaerella graminicola; Anamorph: Septoria tritici
- Procedure Summary: Leaf Blotch of Wheat (SEPTTR) disease control
- Format: in vivo
- Applied Conditions: Zymoseptoria tritici, 72 h, 3 Day Curative, rate 121.5 g/H; read-out: SEPTTR 3 DC disease control

{"Structure As Smiles": "COc1ccnc(C(=O)N[C@H]2CCC[C@H](CCC(C)C)[C@@H](OCC(C)C)[C@H](C)OC2=O)c1OCOC(=O)C(C)C", "pest or weed control at 121.5 g/ha": "80 to 100%"}
{"Structure As Smiles": "CCOCC(=O)OCOc1c(OC)ccnc1C(=O)N[C@H]1CCC[C@H](CCOC)[C@@H](Oc2ccccc2)[C@H](C)OC1=O", "pest or weed control at 121.5 g/ha": "80 to 100%"}
{"Structure As Smiles": "CCOCC(=O)OCOc1c(OC)ccnc1C(=O)N[C@H]1CCC[C@H](CCOc2ccccc2)[C@@H](Oc2ccccc2)[C@H](C)OC1=O", "pest or weed control at 121.5 g/ha": "80 to 100%"}
{"Structure As Smiles": "CCCO[C@@H]1[C@@H](CC2CCCC2)CCC[C@H](NC(=O)c2nccc(OC)c2OC(C)=O)C(=O)O[C@H]1C", "pest or weed control at 121.5 g/ha": "80 to 100%"}
{"Structure As Smiles": "COc1ccnc(C(=O)N[C@H]2CCC[C@H](Cc3ccccc3)[C@@H](OC3CCCC3)[C@H](C)OC2=O)c1OCOC(C)=O", "pest or weed control at 121.5 g/ha": "80 to 100%"}
{"Structure As Smiles": "COc1ccnc(C(=O)N[C@H]2CCC[C@H](Cc3ccc(C)cc3)[C@@H](OCCCC(F)(F)F)[C@H](C)OC2=O)c1O", "pest or weed control at 121.5 g/ha": "80 to 100%"}

----------
We begin with a simple list: items and their reported pest or weed control at 100 ppm.
- System: Erysiphe cichoracearum
- Procedure Summary: Powdery Mildew of Cucumber (ERYSCI) disease control
- Format: in vivo
- Applied Conditions: Golovinomyces cichoracearum, topical, 24 h, 1 Day Protectant, read-out: Disease Control ERYSCI 1 DP
Assay Endpoint: pest or weed control at 100 ppm

{"Structure As Smiles": "COc1ccnc(C(=O)N[C@H]2CCC[C@H](Cc3ccccc3)[C@@H](OCC(C)C)[C@H](C)OC2=O)c1OCOC(=O)C(C)C", "Measurement": "80 to 100%"}
{"Structure As Smiles": "CCCO[C@@H]1[C@@H](Cc2ccccc2)CCC[C@H](NC(=O)c2nccc(OC)c2OC(=O)CCOC)C(=O)O[C@H]1C", "Measurement": "80 to 100%"}
{"Structure As Smiles": "CCOCC(=O)OCOc1c(OC)ccnc1C(=O)N[C@H]1CCC[C@H](Cc2ccccc2)[C@@H](OCC2CC2)[C@H](C)OC1=O", "Measurement": "80 to 100%"}
{"Structure As Smiles": "COc1ccnc(C(=O)N[C@H]2CCC[C@H](Cc3ccc(F)cc3F)[C@@H](OC(=O)c3ccco3)[C@H](C)OC2=O)c1OCOC(C)=O", "Measurement": "0 to 80%"}
{"Structure As Smiles": "COc1ccnc(C(=O)N[C@H]2CCC[C@H](Cc3ccccc3)[C@@H](OCC3CC3)[C@H](C)OC2=O)c1OCOC(=O)C(C)C", "Measurement": "80 to 100%"}
{"Structure As Smiles": "CCCO[C@@H]1[C@@H](CCC(C)C)CCC[C@H](NC(=O)c2nccc(OC)c2OC(C)=O)C(=O)O[C@H]1C", "Measurement": "80 to 100%"}

----------
- Tested on: Mycosphaerella graminicola; Anamorph: Septoria tritici
- Procedure Summary: Leaf Blotch of Wheat (SEPTTR) disease control
- Type: in vivo
- Applied Conditions: Zymoseptoria tritici, 24 h, 1 Day Protectant, rate 100 ppm; read-out: SEPTTR 1 DP disease control
Measured pest or weed control at 100 ppm, listed per entry for reference.
Assay Endpoint: pest or weed control at 100 ppm

{"Structure As Smiles": "COc1ccnc(C(=O)N[C@H]2CCC[C@H](Cc3ccccc3)[C@@H](O)[C@H](C)OC2=O)c1O", "Measurement": "0 to 80%"}
{"Structure As Smiles": "COc1ccnc(C(=O)N[C@H]2CCC[C@H](CCC(C)C)[C@@H](OC3CCCC3)[C@H](C)OC2=O)c1O", "Measurement": "80 to 100%"}
{"Structure As Smiles": "CCO[C@@H]1[C@@H](Cc2ccccc2)CCC[C@H](NC(=O)c2nccc(OC)c2O)C(=O)O[C@H]1C", "Measurement": "80 to 100%"}
{"Structure As Smiles": "COc1ccnc(C(=O)N[C@H]2CCC[C@H](CCSC)[C@@H](OCC(C)C)[C@H](C)OC2=O)c1O", "Measurement": "0 to 80%"}
{"Structure As Smiles": "CCOCC(=O)OCOc1c(OC)ccnc1C(=O)N[C@H]1CCC[C@H](CCC(C)C)[C@@H](OC)[C@H](C)OC1=O", "Measurement": "80 to 100%"}
{"Structure As Smiles": "CCOCC(=O)Oc1c(OC)ccnc1C(=O)N[C@H]1CCC[C@H](CCF)[C@@H](OCC(C)C)[C@H](C)OC1=O", "Measurement": "80 to 100%"}
{"Structure As Smiles": "COc1ccnc(C(=O)N[C@H]2CCC[C@H](CCBr)[C@@H](Oc3ccccc3)[C@H](C)OC2=O)c1OC(C)=O", "Measurement": "80 to 100%"}
{"Structure As Smiles": "CCOCC(=O)OCOc1c(OC)ccnc1C(=O)N[C@H]1CCC[C@H](CCC(C)C)[C@@H](Oc2ccccc2)[C@H](C)OC1=O", "Measurement": "80 to 100%"}
{"Structure As Smiles": "CCOCC(=O)OCOc1c(OC)ccnc1C(=O)N[C@H]1CCC[C@H](Cc2ccccc2)[C@@H](OCC2CC2)[C@H](C)OC1=O", "Measurement": "80 to 100%"}
{"Structure As Smiles": "COc1ccnc(C(=O)N[C@H]2CCC[C@@H]3CCO[C@H]3[C@H](C)OC2=O)c1OCOC(C)=O", "Measurement": "0 to 80%"}
{"Structure As Smiles": "COc1ccnc(C(=O)N[C@H]2CCC[C@H](CCBr)[C@@H](Oc3ccccc3)[C@H](C)OC2=O)c1O", "Measurement": "80 to 100%"}
{"Structure As Smiles": "COc1ccnc(C(=O)N[C@H]2CCC[C@H](CC3CCCC3)[C@@H](Oc3ccccc3)[C@H](C)OC2=O)c1O", "Measurement": "80 to 100%"}
{"Structure As Smiles": "CCOCC(=O)OCOc1c(OC)ccnc1C(=O)N[C@H]1CCC[C@H](CC2CCCC2)[C@@H](OCC2CC2)[C@H](C)OC1=O", "Measurement": "80 to 100%"}
{"Structure As Smiles": "COc1ccnc(C(=O)N[C@H]2CCC[C@H](C)[C@@H](OCc3ccccc3)[C@H](C)OC2=O)c1OCOC(C)=O", "Measurement": "80 to 100%"}

----------
- Tested on: Erysiphe cichoracearum
- Procedure Summary: Powdery Mildew of Cucumber (ERYSCI) disease control
- Type: in vivo
- Applied Conditions: Golovinomyces cichoracearum, topical, 24 h, 1 Day Protectant, read-out: Disease Control ERYSCI 1 DP
- Procedure: Technical grades of materials were dissolved in acetone, which were then mixed with nine volumes of water containing 110 ppm Triton X-100. The fungicide solutions were applied onto wheat seedlings using an automated booth sprayer to run-off. […] All fungicides were evaluated using the aforementioned method for their activity vs. all target diseases. […] Percent disease control was calculated using the ratio of disease severity on treated plants relative to untreated plants. […]

{"Structure As Smiles": "CCCO[C@@H]1[C@@H](CCC(C)C)CCC[C@H](NC(=O)c2nccc(OC)c2OCOC(=O)COCC)C(=O)O[C@H]1C", "pest or weed control at 100 ppm": "80 to 100%"}
{"Structure As Smiles": "COc1ccnc(C(=O)N[C@H]2CCC[C@H](Cc3ccc(C)cc3)[C@@H](OCC(C)C)[C@H](C)OC2=O)c1OCOC(C)=O", "pest or weed control at 100 ppm": "80 to 100%"}
{"Structure As Smiles": "CCO[C@@H]1[C@@H](Cc2ccccc2)CCC[C@H](NC(=O)c2nccc(OC)c2OC(C)=O)C(=O)O[C@H]1C", "pest or weed control at 100 ppm": "0 to 80%"}

----------
Reported pest or weed control at 100 ppm values for a set of compounds
- Tested on: Erysiphe cichoracearum
- Procedure Summary: Powdery Mildew of Cucumber (ERYSCI) disease control
- Type: in vivo
- Applied Conditions: Golovinomyces cichoracearum, topical, 24 h, 1 Day Protectant, read-out: Disease Control ERYSCI 1 DP
- Protocol: Technical grades of materials were dissolved in acetone, which were then mixed with nine volumes of water containing 110 ppm Triton X-100. The fungicide solutions were applied onto wheat seedlings using an automated booth sprayer to run-off. […] All fungicides were evaluated using the aforementioned method for their activity vs. all target diseases. […] Percent disease control was calculated using the ratio of disease severity on treated plants relative to untreated plants. […]
Assay Endpoint: pest or weed control at 100 ppm

{"Compound": "COc1ccnc(C(=O)N[C@H]2CCC[C@H](Cc3ccccc3)[C@@H](OCC3CC3)[C@H](C)OC2=O)c1OCOC(C)=O [Compound F107]", "Measurement": "80 to 100%"}
{"Compound": "COc1ccnc(C(=O)N[C@H]2CCC[C@H](Cc3ccccc3)[C@@H](OCC(C)C)[C@H](C)OC2=O)c1OC(C)=O [Compound F70]", "Measurement": "80 to 100%"}
{"Compound": "CCOCC(=O)OCOc1c(OC)ccnc1C(=O)N[C@H]1CCC[C@H](Cc2ccc(F)cc2)[C@@H](OCC2CC2)[C@H](C)OC1=O [Compound F164]", "Measurement": "80 to 100%"}
{"Compound": "CCCO[C@@H]1[C@@H](Cc2ccccc2)CCC[C@H](NC(=O)c2nccc(OC)c2OCOC(=O)COCC)C(=O)O[C@H]1C [Compound F174]", "Measurement": "80 to 100%"}
{"Compound": "CCCO[C@@H]1[C@@H](Cc2ccc(OC)cc2)CCC[C@H](NC(=O)c2nccc(OC)c2OCOC(C)=O)C(=O)O[C@H]1C [Compound F119]", "Measurement": "80 to 100%"}
{"Compound": "CCOCC(=O)OCOc1c(OC)ccnc1C(=O)N[C@H]1CCC[C@H](CC2CCCCC2)[C@@H](OCC(C)C)[C@H](C)OC1=O [Compound F175]", "Measurement": "0 to 80%"}
